Data provenance: paper PMC7753147

- Test system: gephE
- test-details: µSPOT peptide microarray binding assay with recombinant gephE
- protocol-conditions: µSPOT full positional scan of GlyRβ 15-mer DLRSNDFSIVGSLPR; intensity normalised to wild-type sequence (= 1)
endpoint: gephE Binding Intensity [norm.] (norm.)
Could you give me the number in norm.? Just the number is fine.

Below, each entry is followed by its recorded gephE Binding Intensity [norm.] result.
residues	gephE Binding Intensity [norm.] [norm.]
DLRSNDFSIVSSLPR [GlyRβ_Full_Positional_Scan_215, GlyR β 414-428 variant G424S]	0.4
DLRSNDFSIVGSLPH [GlyRβ_Full_Positional_Scan_293]	0.96
DLRSNDFSIVGSLTR [GlyRβ_Full_Positional_Scan_276]	0.74
DLRSNDFSIVGSLMR [GlyRβ_Full_Positional_Scan_278]	0.6

Now for a further sequence.
Q: Specify measured gephE Binding Intensity [norm.] for DLRSNDFSIVGELPR [GlyRβ_Full_Positional_Scan_231] .
Ans: 0.64

====

- Test system: native geph
- test-details: µSPOT peptide microarray binding assay with native geph from mouse brain lysate
- protocol-conditions: µSPOT peptide microarray, GlyRβ full positional scan, native geph from mouse brain lysate; intensity normalised to wild-type sequence DLRSNDFSIVGSLPR (=1)
Could you mark each record T if its Native geph Binding Intensity [norm.] falls strictly under 0.4 norm., and F if it equals or exceeds it?

residues	label
DLRSNDFSIPGSLPR [GlyRβ_Full_Positional_Scan_185, GlyR β 414-428 variant V423P]	T

Q: I'd appreciate it if you could check whether DLRSNDFSIGGSLPR [GlyRβ_Full_Positional_Scan_182, GlyR β 414-428 variant V423G] has Native geph Binding Intensity [norm.] smaller than 0.4 norm..
Ans: T

Q: I'd appreciate it if you could check whether RLRSNDFSIVGSLPR [GlyRβ_Full_Positional_Scan_012] has Native geph Binding Intensity [norm.] smaller than 0.4 norm..
Ans: F

Q: I'd appreciate it if you could check whether ELRSNDFSIVGSLPR [GlyRβ_Full_Positional_Scan_011] has Native geph Binding Intensity [norm.] smaller than 0.4 norm..
Ans: F

Q: I'd appreciate it if you could check whether DLRSNDFMIVGSLPR [GlyRβ_Full_Positional_Scan_158, GlyR β 414-428 variant S421M] has Native geph Binding Intensity [norm.] smaller than 0.4 norm..
Ans: F

Q: I'd appreciate it if you could check whether DLRSADFSIVGSLPR [GlyRβ_Full_Positional_Scan_081] has Native geph Binding Intensity [norm.] smaller than 0.4 norm..
Ans: F

Q: I'd appreciate it if you could check whether DLRSTDFSIVGSLPR [GlyRβ_Full_Positional_Scan_096] has Native geph Binding Intensity [norm.] smaller than 0.4 norm..
Ans: F

====

- System: native geph
- test-details: µSPOT peptide microarray binding assay with native geph from mouse brain lysate
- protocol-conditions: µSPOT full positional scan of GlyRβ 15-mer DLRSNDFSIVGSLPR; native geph; intensity normalised to wild-type sequence (= 1)
Definition: the class of an entry is the range in bin A: < 0.3 norm.; bin B: ≥ 0.3 norm. and < 0.8 norm.; bin C: ≥ 0.8 norm. that contains its Native geph Binding Intensity [norm.].

Before answering, review these 4 worked examples.
residues	label
DLRSNDFSIVGSLPS [GlyRβ_Full_Positional_Scan_295]	bin C
DLRSNDFSIVGSLWR [GlyRβ_Full_Positional_Scan_268]	bin B
DLRSNDFSIVNSLPR [GlyRβ_Full_Positional_Scan_219, GlyR β 414-428 variant G424N]	bin A
DLRSNDFSIVQSLPR [GlyRβ_Full_Positional_Scan_220, GlyR β 414-428 variant G424Q]	bin A

Q: Category lookup for the sequence DLRSNDFSIVGSLPW [GlyRβ_Full_Positional_Scan_288]
Ans: bin B

Q: Category lookup for the sequence DLRSNDFSIVGYLPR [GlyRβ_Full_Positional_Scan_229]
Ans: bin B
